Tested on: P388 leukemia ip, CD2F1 mice, survival T/C
Assay: NCI In Vivo Anticancer Drug Screen. Data for tumor model P388 Leukemia (intraperitoneal) in CD2F1 (CDF1) mice
Conditions: endpoint: median survival time; dose: 12.5 mg/kg/injection; schedule: Q01DX009 (ip); vehicle: water; higher = longer survival
Toxic doses and inconclusive results are not listed.
Kindly state T/C for each of the entries shown.

Below, 5 compounds whose answers are already recorded.
[
  {
    "compound": "CC1=CC(C)(O)C=C(C)C1=O",
    "quantity-kind": "T/C",
    "value-observed": "96 % of control"
  },
  {
    "compound": "CCOC(=O)NNS(=O)(=O)CCC(N)C(=O)O (stereo unspecified)",
    "quantity-kind": "T/C",
    "value-observed": "98 % of control"
  },
  {
    "compound": "Oc1ccc[n+](CCCCCC[n+]2cccc(O)c2)c1",
    "quantity-kind": "T/C",
    "value-observed": "118 % of control"
  },
  {
    "compound": "CN1CCC(COC(=O)CC(C)(C)C)C1 (stereo unspecified)",
    "quantity-kind": "T/C",
    "value-observed": "99 % of control"
  },
  {
    "compound": "CC1(CC(C)(C)C2CCCCC2)OCCO1",
    "quantity-kind": "T/C",
    "value-observed": "108 % of control"
  }
]

We now examine a further compound.
// sample CN(C)CCCNc1cccc2c1C(=O)c1cccc(NCCCN(C)C)c1C2=O , its T/C was 100 % of control
